Where do these numbers come from? They come from patent US20230265187A1.

target: T1, His-tagged cynomolgus monkey TIGIT (Acro Biosystems #TIT-05223) (cynomolgus monkey, UniProt A0A7N9I9V4 89-209); test: ELISA, coated His-TIGIT, 1 ug/ml
T1 construct: Bought protein; also called cyno TIGIT; cynomolgus TIGIT; not shown: His tag
T1 sequence (A0A7N9I9V4 entry or part of it): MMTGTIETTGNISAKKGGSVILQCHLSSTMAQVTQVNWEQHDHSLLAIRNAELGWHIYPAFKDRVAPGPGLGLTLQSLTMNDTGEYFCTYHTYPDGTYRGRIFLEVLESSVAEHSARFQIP
measurement.label: Elisa OD450 (OD450)
Reply with just the number (in OD450).

Worked cases, Elisa OD450 given:
43586p2.D11 (scFv, V domains shown) VH: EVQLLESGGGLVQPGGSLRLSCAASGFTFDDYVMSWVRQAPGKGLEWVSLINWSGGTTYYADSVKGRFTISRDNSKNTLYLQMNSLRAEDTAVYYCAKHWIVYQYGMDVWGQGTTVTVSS VL: QSVLTQPSSASGTPGQRVAISCSGTISNIETKYVSWYKYVSWYQQLPGTAPKLLIYNNVQRPSGVPDRFSGSQSGTSASLAISGLQSEDEAHYYCASWEGGLNSWVFGGGTKLTVL: 1.6
43586p2.F11 (scFv, V domains shown) VH: EVQLLELGGSLVQPGGSLRLSCAASGFTFDDYVMSWVRQAPGKGLEWVSLINWNGDKTYYADSVKGRFTISRDNSKNTLYLQMNSLRAEDTAVYYCARHWIVFQYGLDVWGQGTTVTVSS VL: QSVLTQPLSASGTPGQKVTISCSGVSSNIEIKYVSWYQQLPGTAPKLLIYNSHQRPSGVPDRFSGSKSGTSASLAISGLQSEDEADYYCTSWDDRLKSWVFGGGTKLTVL: 1.92

Next, consider the following binder.
[in] Report Elisa OD450 for 43586p2.G10 (scFv, V domains shown) VH: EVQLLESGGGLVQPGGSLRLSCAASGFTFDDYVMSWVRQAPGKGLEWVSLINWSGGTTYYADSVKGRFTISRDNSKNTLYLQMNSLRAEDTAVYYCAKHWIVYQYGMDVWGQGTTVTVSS VL: QSVLTQPSSASGTPGQRVTISCSGTISNIETKYVSWYKYVSWYQQLPGTAPKLLIYNNVQRPSGVPDRFSGSQSGTSASLAISGLQSEDEAHYYCASWEGGLNSWVFGGGTKLTVL
[out] 1.83
